Target: CLDN3/4 endogenously expressed on LS513 and MCF7 cells
Experiment: FACS dose curve, labelled mAb, MCF7 cells
Measured Metric: EC50 (µM)
// units = µM; emit number, no label

The cases that follow already have their EC50 on record.
1. AB13 (antibody, V domains shown) VH: QVQLQQSGAELVRPGTSVKVSCKASGYAFSNYLIEWVKQRPGQGLEWIGVINPGSGGTNYNEKFKGKATMTADKSSSTAYMHLSNLTSEDSVVYFCARSYFGRSYPYTMDYWGQGTSVTVSS VL: EIVLTQSPTTMAASPGEKITITCSASSSISSNYLHWYQQKPGFSPKLLIYRTSNLASGVPARFSGSGSGTSYSLTIGTMEAEDVATYYCQQGSSIPLTFGAGTKLELK ... 5
2. AB6 (antibody, V domains shown) VH: DVQLQESGPGLVKSSQSLSLTCSVTGYSITSGYYWKWIRQFPGNKLEWMGYISYDGGINYNPSLKNRISITRDTSKNQFFLKLNSVTTEDTAKYYCARFGKGAMDYWGQGTSVTVSS VL: AIVMFQSPSSLVVSAGEKVTMSCKSSQSLLNSRTRKNYLAWYQQKPGQSPKLLIYWASTRESGVPDRFTGSGSGTDFTLTISSVQAEDLAVYYCKQSYYLYTFGGGTKLEIK ... 1.14

Now let's try a different one.
Prompt: May I ask what EC50 has been recorded for AB14 (antibody, V domains shown) VH: QVQLQQSGPELVRPGVSVKISCKGSGYTFTDYAMHWVKQSHAKSLEWIGVISTYSGNTNYNQKFQDKATMTVDKSSSTAYMALARLTSDDSAIYYCARRGDYSLYAMDYWGQGTSVTVSS VL: DIVLTQSPASLAVSLGQRATISCKASQSVDYDGDNYVNWYQQKVGQPPKLLISAASNLESGIPARFSGSGSGTDFTLNIHPVEEEDAATYYCQQSNEDPFTFGSGTKLEIK ?
Response: 0.546
